B1: MGC16075 (parent)
chain: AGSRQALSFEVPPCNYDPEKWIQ

Variants of: B1
measurement_notes: protein stability index of a GFP-peptide fusion (GPS, HEK-293T) (PSI 1-6); higher = more stable;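 further: lentivirally expressed fusions sorted by FACS into six bins by GFP to DsRed ratio, PSI derived from sequencing read proportions per bin multiplied by bin number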
details: c terminus: native
measured_quantity: protein stability index
Provide a numeric answer; units are not to be included.

Please supply the value of reported protein stability index for the item Q23I 2.43

Please supply the value of reported protein stability index for the item R4L 2.53

Please supply the value of reported protein stability index for the item A6M 2.98

Please supply the value of reported protein stability index for the item E10N 1.7

Please supply the value of reported protein stability index for the item S3Q 1.6

Please supply the value of reported protein stability index for the item E19D 2.54

Please supply the value of reported protein stability index for the item F9L 2.48

Please supply the value of reported protein stability index for the item G2N 2.37

Please supply the value of reported protein stability index for the item D17V 2

Please supply the value of reported protein stability index for the item Q23K 1.91

Please supply the value of reported protein stability index for the item K20Q 4.32

Please supply the value of reported protein stability index for the item L7V 1.78

Please supply the value of reported protein stability index for the item S3E 1.28

Please supply the value of reported protein stability index for the item L7K 1.82

Please supply the value of reported protein stability index for the item C14F 1.5

Please supply the value of reported protein stability index for the item S3H 2.44

Please supply the value of reported protein stability index for the item C14R 1.92

Please supply the value of reported protein stability index for the item P13E 1.44

Please supply the value of reported protein stability index for the item Q5D 1.52

Please supply the value of reported protein stability index for the item A1Q 2.17

Please supply the value of reported protein stability index for the item K20F 3.49

Please supply the value of reported protein stability index for the item S3D 1.86

FYI, the data here is from the supplement of paper PMC10567573.
